Listed next: entries and their corresponding selectivity ratio.
# test name: Safety index, ratio of CC50 for test compound to CC50 for chlorpromazine for cytotoxicity in human monocyte-derived macrophages
# Format: cell-based, Macrophage cell line

Solved entries (count: 2):
[[record]]
sample_smiles = "CCCOc1ccc(-c2cn(CCN3CCCCC3)c3ccccc3c2=O)cc1"
assay_endpoint = "selectivity ratio"
reported = "2 to 4"

[[record]]
sample_smiles = "CCCOc1ccc(-c2cn(CCN(CC)CC)c3ccccc3c2=O)cc1"
assay_endpoint = "selectivity ratio"
reported = "2 to 4"


Next, consider the following compound.
**Query** Give the measured selectivity ratio of CCCOc1ccc(-c2cn(CCN3CCCCCC3)c3ccccc3c2=O)cc1 .
**Result** 2 to 4

* * *

# System: Mycobacterium avium
# condition summary: isolate MAV3
assay endpoint: MIC (µg/mL)
State just the number; it will be interpreted in µg/mL.

[[record]]
compound = "CCCOc1ccc(-c2cn(CCN3CCCCCC3)c3ccccc3c2=O)cc1"
assay_endpoint = "MIC"
reported = 0.5

[[record]]
compound = "CN(C)CCCN1c2ccccc2Sc2ccc(Cl)cc21 [CHLORPROMAZINE]"
assay_endpoint = "MIC"
reported = 0.5

[[record]]
compound = "CCCOc1ccc(-c2cn(CCN3CCCCC3)c3ccccc3c2=O)cc1"
assay_endpoint = "MIC"
reported = 0.5

[[record]]
compound = "CCCOc1ccc(-c2cn(CCN(CC)CC)c3ccccc3c2=O)cc1"
assay_endpoint = "MIC"
reported = 4


Next, consider the following compound.
**Query** Give the measured MIC of CSc1ccc2c(c1)N(CCC1CCCCN1C)c1ccccc1S2 (stereo not given) [THIORIDAZINE] .
**Result** 2

* * *

# Tested on: Mycobacterium avium
# condition summary: isolate MAV3
Listed next: entries and their corresponding MIC.
State just the number; it will be interpreted in µg/mL.

Solved entries (count: 2):
[[record]]
compound = "CCCOc1ccc(-c2cn(CCN3CCCCCC3)c3ccccc3c2=O)cc1"
reported = 0.78

[[record]]
compound = "CSc1ccc2c(c1)N(CCC1CCCCN1C)c1ccccc1S2 (stereo not given)"
reported = 12.5


**Query** Give the measured MIC of CCCOc1ccc(-c2cn(CCN(CC)CC)c3ccccc3c2=O)cc1 .
**Result** 12.5

**Query** Now try CN(C)CCCN1c2ccccc2Sc2ccc(Cl)cc21 .
**Result** 3.12

**Query** Now try CCCOc1ccc(-c2cn(CCN3CCCCC3)c3ccccc3c2=O)cc1 .
**Result** 3.12

* * *

Listed next: entries and their corresponding MIC.
# Test system: Mycobacterium avium
# condition summary: isolate MAV2
State just the number; it will be interpreted in µg/mL.

[[record]]
compound = "CSc1ccc2c(c1)N(CCC1CCCCN1C)c1ccccc1S2 (stereo not given)"
units = "µg/mL"
reported = 128


**Query** Give the measured MIC of CCCOc1ccc(-c2cn(CCN(CC)CC)c3ccccc3c2=O)cc1 .
**Result** 16

**Query** Now try CCCOc1ccc(-c2cn(CCN3CCCCC3)c3ccccc3c2=O)cc1 .
**Result** 256

* * *

Listed next: entries and their corresponding MIC.
# Tested on: Mycobacterium avium
# condition summary: 104 mc'2 4
State just the number; it will be interpreted in µg/mL.

Solved entries (count: 2):
[[record]]
molecule = "CCCOc1ccc(-c2cn(CCN(CC)CC)c3ccccc3c2=O)cc1"
test_system = "Mycobacterium avium"
units = "µg/mL"
reported = 256

[[record]]
molecule = "CN(C)CCCN1c2ccccc2Sc2ccc(Cl)cc21 [CHLORPROMAZINE]"
test_system = "Mycobacterium avium"
units = "µg/mL"
reported = 64


**Query** Give the measured MIC of CSc1ccc2c(c1)N(CCC1CCCCN1C)c1ccccc1S2 (stereo not given) [THIORIDAZINE] .
**Result** 32

* * *

# Test system: Mycobacterium avium
# condition summary: isolate MAV3
assay endpoint: MIC

Solved entries (count: 4):
[[record]]
molecule = "CSc1ccc2c(c1)N(CCC1CCCCN1C)c1ccccc1S2 (stereo not given)"
test_system = "Mycobacterium avium"
assay_endpoint = "MIC"
reported = "64 µg/mL"

[[record]]
molecule = "CCCOc1ccc(-c2cn(CCN3CCCCC3)c3ccccc3c2=O)cc1"
test_system = "Mycobacterium avium"
assay_endpoint = "MIC"
reported = "< 4 µg/mL"

[[record]]
molecule = "CN(C)CCCN1c2ccccc2Sc2ccc(Cl)cc21"
test_system = "Mycobacterium avium"
assay_endpoint = "MIC"
reported = "8 µg/mL"

[[record]]
molecule = "CCCOc1ccc(-c2cn(CCN(CC)CC)c3ccccc3c2=O)cc1"
test_system = "Mycobacterium avium"
assay_endpoint = "MIC"
reported = "128 µg/mL"


Next, consider the following molecule.
**Query** Which MIC is reported with Mycobacterium avium for this entry: CCCOc1ccc(-c2cn(CCN3CCCCCC3)c3ccccc3c2=O)cc1 ?
**Result** < 4 µg/mL

* * *

# Tested on: Mycobacterium avium
# condition summary: isolate MAV1
# Description: Inhibition of multidrug resistance efflux pump in Mycobacterium avium isolate MAV1 assessed as potentiation of ciprofloxacin-induced antibacterial activity by measuring ciprofloxacin MIC at 1/2 MIC incubated for 3 days by MTT assay (Rvb = 2 ug/ml)
assay endpoint: MIC

Solved entries (count: 4):
[[record]]
compound = "CN(C)CCCN1c2ccccc2Sc2ccc(Cl)cc21"
reported = "< 0.031 µg/mL"

[[record]]
compound = "CCCOc1ccc(-c2cn(CCN(CC)CC)c3ccccc3c2=O)cc1"
reported = "2 µg/mL"

[[record]]
compound = "CCCOc1ccc(-c2cn(CCN3CCCCCC3)c3ccccc3c2=O)cc1"
reported = "< 0.031 µg/mL"

[[record]]
compound = "CCCOc1ccc(-c2cn(CCN3CCCCC3)c3ccccc3c2=O)cc1"
reported = "< 0.031 µg/mL"


Next, consider the following compound.
**Query** Which MIC is reported with Mycobacterium avium for this entry: CSc1ccc2c(c1)N(CCC1CCCCN1C)c1ccccc1S2 (stereo not given) ?
**Result** < 0.031 µg/mL

* * *

# System: Mycobacterium avium
# condition summary: isolate MAV4
assay endpoint: MIC (µg/mL)
State just the number; it will be interpreted in µg/mL.

[[record]]
molecule = "CN(C)CCCN1c2ccccc2Sc2ccc(Cl)cc21 [CHLORPROMAZINE]"
assay_endpoint = "MIC"
units = "µg/mL"
reported = 44


**Query** Give the measured MIC of CCCOc1ccc(-c2cn(CCN3CCCCC3)c3ccccc3c2=O)cc1 .
**Result** 4

**Query** Now try CCCOc1ccc(-c2cn(CCN3CCCCCC3)c3ccccc3c2=O)cc1 .
**Result** 8

**Query** Now try CCCOc1ccc(-c2cn(CCN(CC)CC)c3ccccc3c2=O)cc1 .
**Result** 16

**Query** Now try CSc1ccc2c(c1)N(CCC1CCCCN1C)c1ccccc1S2 (stereo not given) [THIORIDAZINE] .
**Result** 16

* * *

# System: Mycobacterium avium
# condition summary: isolate MAV2
assay endpoint: MIC (µg/mL)
State just the number; it will be interpreted in µg/mL.

Solved entries (count: 2):
[[record]]
sample_smiles = "CCCOc1ccc(-c2cn(CCN3CCCCC3)c3ccccc3c2=O)cc1"
reported = 512

[[record]]
sample_smiles = "CCCOc1ccc(-c2cn(CCN(CC)CC)c3ccccc3c2=O)cc1"
reported = 512


Next, consider the following molecule.
**Query** Give the measured MIC of CCCOc1ccc(-c2cn(CCN3CCCCCC3)c3ccccc3c2=O)cc1 .
**Result** 256

* * *

# System: Mycobacterium avium
# condition summary: 104 mc'2 4
Listed next: entries and their corresponding MIC.

Solved entries (count: 4):
[[record]]
compound = "CN(C)CCCN1c2ccccc2Sc2ccc(Cl)cc21 [CHLORPROMAZINE]"
assay_endpoint = "MIC"
reported = "> 512 µg/mL"

[[record]]
compound = "CCCOc1ccc(-c2cn(CCN3CCCCCC3)c3ccccc3c2=O)cc1"
assay_endpoint = "MIC"
reported = "32 µg/mL"

[[record]]
compound = "CCCOc1ccc(-c2cn(CCN3CCCCC3)c3ccccc3c2=O)cc1"
assay_endpoint = "MIC"
reported = "128 µg/mL"

[[record]]
compound = "CSc1ccc2c(c1)N(CCC1CCCCN1C)c1ccccc1S2 (stereo not given) [THIORIDAZINE]"
assay_endpoint = "MIC"
reported = "> 512 µg/mL"


**Query** Give the measured MIC of CCCOc1ccc(-c2cn(CCN(CC)CC)c3ccccc3c2=O)cc1 .
**Result** 512 µg/mL

* * *

Reported MIC values, Mycobacterium avium subsp. avium ATCC 25291.
State just the number; it will be interpreted in µg/mL.

Solved entries (count: 4):
[[record]]
compound = "CCCOc1ccc(-c2cn(CCN(CC)CC)c3ccccc3c2=O)cc1"
reported = 32

[[record]]
compound = "CCCOc1ccc(-c2cn(CCN3CCCCCC3)c3ccccc3c2=O)cc1"
reported = 8

[[record]]
compound = "CN(C)CCCN1c2ccccc2Sc2ccc(Cl)cc21 [CHLORPROMAZINE]"
reported = 16

[[record]]
compound = "CSc1ccc2c(c1)N(CCC1CCCCN1C)c1ccccc1S2 (stereo not given) [THIORIDAZINE]"
reported = 32


Next, consider the following compound.
**Query** Which MIC is reported with Mycobacterium avium subsp. avium ATCC 25291 for this entry: CCCOc1ccc(-c2cn(CCN3CCCCC3)c3ccccc3c2=O)cc1 ?
**Result** 8
